Molecular target: human SGLT1 (Homo sapiens)
Sequence (P13866 1-664): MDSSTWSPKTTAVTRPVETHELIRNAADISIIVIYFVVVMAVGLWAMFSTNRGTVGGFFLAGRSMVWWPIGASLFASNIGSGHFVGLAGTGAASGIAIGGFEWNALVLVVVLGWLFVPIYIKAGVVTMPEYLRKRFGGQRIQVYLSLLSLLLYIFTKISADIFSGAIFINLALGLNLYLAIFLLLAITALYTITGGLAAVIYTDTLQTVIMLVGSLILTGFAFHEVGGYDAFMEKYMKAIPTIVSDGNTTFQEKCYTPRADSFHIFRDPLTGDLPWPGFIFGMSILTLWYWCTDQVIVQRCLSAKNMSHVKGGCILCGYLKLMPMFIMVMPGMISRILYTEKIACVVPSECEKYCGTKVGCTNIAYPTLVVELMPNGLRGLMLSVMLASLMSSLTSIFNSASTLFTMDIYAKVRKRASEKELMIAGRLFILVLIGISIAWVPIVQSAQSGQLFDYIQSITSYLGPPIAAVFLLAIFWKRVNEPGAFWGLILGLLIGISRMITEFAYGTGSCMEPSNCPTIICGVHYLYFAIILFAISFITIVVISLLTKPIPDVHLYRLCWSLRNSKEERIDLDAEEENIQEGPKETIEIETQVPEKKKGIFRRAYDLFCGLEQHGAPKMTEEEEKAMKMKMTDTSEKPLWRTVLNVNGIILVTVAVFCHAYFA
Test: SGLT1 assay: Na-dependent 14C-AMG uptake in CHO-K1 cells stably expressing human SGLT1
Details: average if tested more than once
Measured Parameter: IC50 (nM)

compound="OC[C@H]1O[C@@H](c2cc3c(c(Cc4ccc5c(c4)OCCO5)c2)OCC3)[C@H](O)[C@@H](O)[C@@H]1F [Compound 54]" units=nM number=69
compound="CCOC(=O)N1CCc2sc(Cc3cc([C@@H]4O[C@H](CO)[C@@H](F)[C@H](O)[C@H]4O)c(O)cc3C)cc2C1 [Compound 64]" units=nM number=156
compound="OC[C@H]1O[C@@H](c2cc3c(c(Cc4ccc(OCF)cc4)c2)OCC3)[C@H](O)[C@@H](O)[C@@H]1F [Compound 133]" units=nM number=236
compound="Cc1c([C@@H]2O[C@H](CO)[C@@H](F)[C@H](O)[C@H]2O)cc(Cc2ccc3c(c2)SCCO3)c2c1CCO2 [Compound 131]" units=nM number=231
compound="[2H]C([2H])(c1ccc2c(c1)OCCO2)c1cc([C@@H]2O[C@H](CO)[C@@H](F)[C@H](O)[C@H]2O)ccc1CC [Compound 156]" units=nM number=86
compound="COc1cc(C)c(Cc2cc3c(s2)CCN(c2ncc(C)s2)C3)cc1[C@@H]1O[C@H](CO)[C@@H](F)[C@H](O)[C@H]1O [Compound 123]" units=nM number=1360
compound="COc1cc(O)c([C@@H]2O[C@H](CF)[C@@H](F)[C@H](O)[C@H]2O)cc1Cc1cc2ccccc2s1 [Compound 11]" units=nM number=91
compound="COC(=O)N1CCc2sc(Cc3cc([C@@H]4O[C@H](CO)[C@@H](F)[C@H](O)[C@H]4O)c(O)cc3Cl)cc2C1 [Compound 73]" units=nM number=240
compound="CCc1ccc(Cc2cc([C@@H]3O[C@H](CO)[C@@H](F)[C@H](O)[C@H]3O)cc3c2OCC3)cc1 [Compound 134]" units=nM number=254
